From: PubChem BioAssay (NCI)

- Test system: MDA-MB-468 breast
- TEST_DETAILS: NCI-60 one-dose screen, 48 h
- RUN_CONDITIONS: 10 µM
About 83,000 compounds went through this panel and 20% of them were active in at least one assay; those are over-represented in the sample as a whole. Calls of active or inactive are those of the source. How the source made its calls: active means growth percent below 10; inactive means the rest.
Give one outcome, nothing more. List: active, inactive

The examples below pair each entry with its known result.
compound=O=C(O)c1sccc1O assigned_category=inactive
compound=COc1ccc(C(=O)/C=C/c2ccc(OCc3ccc(Cl)cc3)cc2)cc1OC assigned_category=inactive

Call for entry CC(=O)O[C@H]1C(=O)[C@@]2(C)[C@H]([C@H](OC(=O)c3ccccc3)[C@]3(O)C[C@H](OC(=O)[C@H](O)[C@@H](NC(=O)c4ccccc4)c4ccccc4)C(C)=C1C3(C)C)[C@]1(OC(C)=O)CO[C@@H]1C[C@@H]2O :
active

Call for entry O=C(Nc1c(Cl)cccc1Cl)Oc1cccc2cccnc12 :
inactive

Call for entry CCCCCCCCCCCCCCCc1ccc(Cl)c(O)c1Cl (tested in a mixture with another compound) :
inactive

###

- Test system: MDA-MB-468 breast
- TEST_DETAILS: NCI-60 one-dose screen, 48 h
- RUN_CONDITIONS: 10 µM unless noted
Compounds without any hit were thinned out: in the full panel of roughly 83,000, 20% have a hit. Active and inactive are the calls of the source. Rule for the calls: active = growth percent below 10; inactive = the rest.
Give one outcome, nothing more. List: active, inactive

compound=COC(=O)Nc1ccc(-c2nc(-c3cccc(O)c3)c(-c3ccnc(Br)c3)[nH]2)cc1 assigned_category=inactive
compound=OCc1cnccc1NCCCCOc1ccc(Oc2ccccc2)cc1 assigned_category=inactive
compound=Nc1nc(-c2cccc([N+](=O)[O-])c2)c(N=Nc2cccc([N+](=O)[O-])c2)s1 assigned_category=inactive
compound="CCOC(=O)C(NC(=O)C(Cl)Cl)C(O)c1ccccc1 (configuration not stated)" assigned_category=inactive
compound=CC(=O)NCc1cc(C)c(C)cc1C assigned_category=inactive
compound=O=C1/C(=C\C(Cl)=C/c2ccc([N+](=O)[O-])cc2)SC(=S)N1CCc1ccc(O)cc1 assigned_category=active

Call for entry C#CCn1cc(C=C2C(=O)NC(=O)NC2=O)c2cc(Cl)ccc21 :
inactive

Call for entry CN1CCN(CCCOc2ccc3nc(Nc4cc(Cl)cc(Cl)c4)ccc3c2)CC1 :
active

Call for entry Cc1ccc(CC(=O)O)c(C)c1 :
inactive

Call for entry NC1=CSC2=N/C(=C\c3ccc(Cl)cc3)C(=O)N12 :
inactive

Call for entry O=C(Cn1c(=O)ccn(CCCCCCCCOc2ccc(Br)cc2)c1=O)Nc1ccc(Oc2ccc(Cl)cc2)cc1 :
inactive

Call for entry CCCCCCCCCOc1c(OC)cc(C2CC(=O)Nc3c2c(C)nn3-c2nc3ccccc3[nH]2)cc1OC (configuration not stated) :
active

Call for entry CC(=O)c1cnc2ccc(-c3cc(Cl)c(O)c(Cl)c3)nc2c1NC1CCC(CN(C)C)CC1 (configuration not stated) :
active

###

- Tested on: SN12C renal
- TEST_DETAILS: NCI-60 one-dose screen, 48 h
- RUN_CONDITIONS: 10 µM
Compounds without any hit were thinned out: in the full panel of roughly 83,000, 20% have a hit. The source made the active and inactive calls. How the source made its calls: active means growth percent below 10; inactive means the rest.
Give one outcome, nothing more. List: Yes for active, No for inactive

molecule=O=C1S/C(=C\c2ccc([N+](=O)[O-])cc2)C(=O)N1CCN1CCCCC1 system="SN12C renal" assigned_category=No
molecule="COc1ccc(C2c3sc4ccc(C)cc4c3Oc3nc(N)nc(N)c32)cc1 (stereo unspecified)" system="SN12C renal" assigned_category=No
molecule=COc1ccccc1-n1cc(C#N)c(N)c1C(=O)c1ccc(Cl)cc1Cl system="SN12C renal" assigned_category=No

Call for entry Cc1ccc2c(c1)C(=O)/C(=C/c1ccc([N+](=O)[O-])cc1)S2 :
No

Call for entry COc1ccc(Cn2cc(C#N)c(N)c2C(C)=O)c(OC)c1 :
No

Call for entry CCOC(=O)c1ccc(NC(=O)CSC(CC(=O)c2sc(Nc3ccccn3)nc2C)c2ccccc2F)cc1 (stereo unspecified) :
Yes

###

- Tested on: MDA-MB-468 breast
- TEST_DETAILS: NCI-60 one-dose screen, 48 h (100 = growth as untreated, 0 = no growth, -100 = all killed)
- RUN_CONDITIONS: 10 µM unless noted
The panel holds about 83,000 compounds, 20% with a hit somewhere; the sample as a whole holds those more often.
MEASURED_METRIC: growth (%)
Give bare numbers, in %.

Some molecules with recorded growth:
molecule=Cc1ccnc2c1ccc1c(C)ccnc12 measured_metric=growth units_symbol=% measured_result=-17.8
molecule=O=[N+]([O-])c1ccc(N/N=C\c2ccccc2[N+](=O)[O-])nc1 measured_metric=growth units_symbol=% measured_result=114
molecule=O=[N+]([O-])c1ccc(-c2cc3c(Nc4ccc(OCc5cccc(Cl)c5)c(Cl)c4)ncnc3s2)cc1 measured_metric=growth units_symbol=% measured_result=56.2
molecule=O=C(CCl)NNc1nccc(Nc2ccc(S(=O)(=O)Nc3ccncc3)cc2)n1 measured_metric=growth units_symbol=% measured_result=31.5
molecule=Nc1ccc(-c2cc3c(NCc4ccccc4)ncnc3s2)cc1 measured_metric=growth units_symbol=% measured_result=4.36
molecule=Cc1cc(NCc2cc(Nc3ccnc4cc(Cl)ccc34)ccc2F)nc(Cl)n1 measured_metric=growth units_symbol=% measured_result=-3.4
molecule=Cn1cc(-c2csc(-c3cn(C)c4ncccc34)n2)c2cc(Br)cnc21 measured_metric=growth units_symbol=% measured_result=-28.4
molecule=O=C(Nc1ccc(CO)cc1)c1ccccc1Nc1ccnc(C(F)(F)F)c1 measured_metric=growth units_symbol=% measured_result=123
molecule=Cc1cc(-c2ccc(N=Nc3ccc4c(S(=O)(=O)O)cc(S(=O)(=O)O)c(N)c4c3O)c(C)c2)ccc1N=Nc1ccc2c(S(=O)(=O)O)cc(S(=O)(=O)O)c(N)c2c1O measured_metric=growth units_symbol=% measured_result=98.2
molecule="CCCCCCN(CCCCCC)CC(O)c1ccc2c3c(cccc13)CC2 (configuration not stated)" measured_metric=growth units_symbol=% measured_result=55.6

// for each molecule in input: emit growth
1. S=C1SCN(Cc2ccccc2)CN1Cc1ccco1
2. C=C1C(=O)O[C@H]2[C@H]1CC/C(COC(=O)NCCCCNC(=O)OC/C1=C/CC[C@@]3(C)O[C@H]3[C@H]3OC(=O)C(=C)[C@@H]3CC1)=C\CC[C@@]1(C)O[C@@H]21

1: 31.9; 2: -14.8

// for each molecule in input: emit growth
1. CC(=O)c1ccc(Nc2nc(NCCO)nc(Nc3ccc(Cl)cc3)n2)cc1
2. O=C(CSc1ncc(-c2ccccc2)n1-c1ccccc1)Nc1ccc(-c2nc3ccccc3s2)cc1
3. CCCCCCCCCCCCCCCCN(CC)CC
4. O=C(/C=C/c1ccccc1)c1cccs1
5. CC(=O)OCC(=O)[C@@]1(O)CC[C@H]2[C@@H]3CC[C@@H]4C[C@H](O)CC[C@]4(C)[C@H]3C(=O)C[C@@]21C
6. Cc1ccc([C@H]2c3[nH]c4ccccc4c3C[C@H]3C(=O)N(CCCCCCC(=O)NO)CC(=O)N23)s1
7. COc1ccc(-c2nc3ccc(Cc4ccc5nc(-c6ccc(OC)cc6)[nH]c5c4)cc3[nH]2)cc1
8. CCN1C(=O)N(c2ccccc2)C2NN=c3s/c(=C4\C(=O)N(C(C)C)c5ccccc54)c(=O)n3C21 (configuration not stated)

65.7
15.4
-85.3
80.2
98.1
37.3
-20.2
21.4

// for each molecule in input: emit growth
1. CCCCC/C=C/CCC(=O)N[C@H]1[C@H](Oc2c3cc4cc2Oc2ccc(cc2Cl)[C@@H](O[C@@H]2O[C@H](CO)[C@@H](O)[C@H](O)[C@H]2NC(C)=O)[C@@H]2NC(=O)[C@H](NC(=O)[C@@H]4NC(=O)[C@H]4NC(=O)[C@@H](Cc5ccc(c(Cl)c5)O3)NC(=O)[C@@H](N)c3ccc(O)c(c3)Oc3cc(O)cc4c3)c3ccc(O)c(c3)-c3c(O[C@H]4O[C@H](CO)[C@@H](O)[C@H](O)[C@@H]4O)cc(O)cc3[C@H](C(=O)O)NC2=O)O[C@H](CO)[C@H](O)[C@@H]1O
2. CC(C)=CCC[C@](C)(O)[C@H]1CC[C@]2(C)[C@@H]1CC[C@@H]1[C@@]3(C)C/C(=C/c4cccc([N+](=O)[O-])c4)C(=O)C(C)(C)[C@@H]3CC[C@]12C
3. C[C@]12CCC(=O)C=C1CCC1C2[C@@H](O)C[C@@]2(C)C1CC[C@]2(O)C(=O)COC(=O)CCC(=O)O (some centres not stated)

110
84.3
109

// for each molecule in input: emit growth
1. COc1ccc(-c2ccc3ncc4c(c3c2)n(-c2ccc(N3CCNCC3)c(C(F)(F)F)c2)c(=O)n4C)cn1
2. CNc1sc(S(=O)(=O)NC)nc1S(=O)(=O)c1ccc(C)cc1

-87
86.3

// for each molecule in input: emit growth
1. CCOC(=O)/C(O)=C(\C=N\C(=S)Nc1ccc(Cl)c(Cl)c1)C(=O)OCC
2. CC1=NOC(=O)/C1=C\c1ccc(O)cc1

1: 102; 2: 103
